// provenance: patent US12077503B2

# maps each entry to its Ragweed plant response rating (0 to 100 scale, 0 is no effect, 100 is complete control)
test system: ragweed (common ragweed, Ambrosia elatior); assay: Test A preemergence; assay type: in vivo; conditions: Preemergence, 500 g ai/ha, visual injury approx. 10 d
Description: […]
READOUT TYPE: Ragweed plant response rating (0 to 100 scale, 0 is no effect, 100 is complete control)

>  <COMPOUND>
CN1CC(c2cccc(OC(F)(F)C(F)F)c2)C(C(=O)Nc2ccccc2F)C1=O (stereo not shown)

>  <VALUE>
70

$$$$
>  <COMPOUND>
O=C1NCC(c2cccc(C#Cc3ccccc3)c2)C1C(=O)Nc1cccc(F)c1F (stereo not shown)

>  <VALUE>
0

$$$$
>  <COMPOUND>
C=C(C)CN1CC(c2cccc(C(F)(F)F)c2)C(C(=O)Nc2ccccc2F)C1=O (stereo not shown)

>  <VALUE>
0

$$$$
>  <COMPOUND>
O=C1NCC(c2cc(C(F)(F)F)cc(C(F)(F)F)c2)C1C(=O)Nc1ccc(F)cc1F (stereo not shown)

>  <VALUE>
0

$$$$
>  <COMPOUND>
CN1CC(c2cccc(C(F)(F)F)c2)C(C(=O)Nc2ccccc2)C1=O (stereo not shown)

>  <VALUE>
40

$$$$
>  <COMPOUND>
CC(C)=CCN1CC(c2cccc(C(F)(F)F)c2)C(C(=O)Nc2ccccc2F)C1=O (stereo not shown)

>  <VALUE>
0

$$$$
>  <COMPOUND>
CN1CC(c2cccc(C(F)(F)F)c2)C(C(=O)Nc2ccc(F)cc2F)C1=O (stereo not shown)

>  <VALUE>
0

$$$$
>  <COMPOUND>
O=C1NCC(c2ccc(F)c(F)c2)C1C(=O)Nc1ccc(Cl)cc1F (stereo not shown)

>  <VALUE>
0

$$$$
>  <COMPOUND>
O=C(Nc1ccccc1F)C1C(=O)N(CC=CBr)CC1c1cccc(C(F)(F)F)c1 (stereo not shown)

>  <VALUE>
0

$$$$
>  <COMPOUND>
O=C1NCC(c2cccc(OC(F)F)c2)C1C(=O)Nc1cccc(OC(F)F)c1 (stereo not shown)

>  <VALUE>
0

$$$$
>  <COMPOUND>
Cc1cc(C2CN(C)C(=O)C2C(=O)Nc2ccccc2C(F)(F)F)ccc1F (stereo not shown)

>  <VALUE>
40

$$$$
>  <COMPOUND>
CN1CC(c2cccc(C(F)(F)F)c2)C(C(=O)Nc2ccccc2[N+](=O)[O-])C1=O (stereo not shown)

>  <VALUE>
50

$$$$
>  <COMPOUND>
CC(=O)N1CC(c2cccc(C(F)(F)F)c2)C(C(=O)Nc2ccccc2F)C1=O (stereo not shown)

>  <VALUE>
0

$$$$
>  <COMPOUND>
CN1CC(c2cccc(OC(F)(F)C(F)F)c2)C(C(=O)Nc2ccccc2C(F)(F)F)C1=O (stereo not shown)

>  <VALUE>
70

$$$$
>  <COMPOUND>
Cc1cccc(NC(=O)C2C(=O)NCC2c2ccc(F)c(F)c2)c1F (stereo not shown)

>  <VALUE>
0

$$$$
>  <COMPOUND>
O=C1NCC(c2cccc(OC(F)F)c2)C1C(=O)Nc1ccccc1OC(F)F (stereo not shown)

>  <VALUE>
40

$$$$
>  <COMPOUND>
COc1cccc(NC(=O)C2C(=O)NCC2c2cccc(OC(F)F)c2)c1F (stereo not shown)

>  <VALUE>
0

$$$$
>  <COMPOUND>
Cc1cc(C2CN(C)C(=O)C2C(=O)Nc2ccccc2F)ccc1F (stereo not shown)

>  <VALUE>
70

$$$$
>  <COMPOUND>
O=C1NCC(c2cc(F)ccc2F)C1C(=O)Nc1ccc(F)cc1F (racemic)

>  <VALUE>
0

$$$$
